- assay.name: Multicenter, open-label, Phase 1a/b study of HC-7366 in subjects with advanced solid tumors (safety, PK)
- Assay type: in vivo
- condition.context: human, plasma, po, 20 mg, human, multiple once daily oral 20 mg (N = 3), Cycle 1 Day 21, geometric mean
reported.endpoint: Cmax (ng/mL)

• CNC(=O)c1ncn2cc(-c3c(F)ccc(NS(=O)(=O)c4cc(Cl)cnc4OC)c3F)ncc12 = 3710

----------
- assay.name: Pharmacokinetics of HC-7366 in male and female beagle dogs following IV and oral administration of HC-7366-K (plasma and urine, LC-MS/MS)
- Type: in vivo, Beagle Dog
- condition.context: plasma; male beagle dog, oral 150 mg/kg, suspension of Form III
reported.endpoint: Cmax (µg/mL)

• CNC(=O)c1ncn2cc(-c3c(F)ccc(NS(=O)(=O)c4cc(Cl)cnc4OC)c3F)ncc12 = 280
